Measured Target: P2X7 (Homo sapiens, UniProt Q99572)
Construct: endogenous in cells; host or cells: THP-1 human monocytic cell line
Method Notes: THP-1 YoPro uptake assay (BzATP-stimulated Yo-Pro-1 uptake)
Type: cell-based
Conditions Used: Table F-10, THP-1 cells, read-out: mean pIC50 values for P2X7 antagonism (converted)
Experimental: The human monocytic cell line THP-1 was grown as a suspension culture in RPMI medium supplemented with 10% fetal bovine serum, penicillin/streptomycin (50 units/mL), 2 mM L-glutamine, and 20 μM 2-mercaptoethanol. […] Concentration dependence of block was determined by exposing each well of cells in duplicate rows of a 96-well plate to a serial dilution of test compound. […] A background reading was taken using a Gemini SpectraMax with 490 nm excitation and 530 nm emission. […]
Measurement Label: IC50 (nM)

>>> result_number("O=C(NCC(c1cnc(C(F)(F)F)nc1)N1CCC(F)(F)CC1)c1c(Cl)ccc2nc(NCCN3CCOCC3)ccc12 (stereo not shown)")
5.13
>>> result_number("O=C(NCC(c1cnc(C(F)(F)F)nc1)N1CCOCC1)c1c(Cl)ccc2nc(NCCO)ccc12 (stereo not shown)")
9.12
>>> result_number("O=C(NCC(c1cnc(C(F)(F)F)nc1)N1CCOCC1)c1c(Cl)ccc2nc(NCc3cccnc3)ccc12 (stereo not shown)")
77.6
>>> result_number("O=C(NCC(c1cnc(C(F)(F)F)nc1)N1CCOCC1)c1c(Cl)ccc2nc(NCC3CCOCC3)ccc12 (stereo not shown)")
77.6
>>> result_number("NCCNc1ccc2c(C(=O)NCC(c3cnc(C(F)(F)F)nc3)N3CCCCC3)c(Cl)ccc2n1 (stereo not shown)")
1.45
>>> result_number("O=C(NCC(c1cnc(C(F)(F)F)nc1)N1CCCCC1)c1c(Cl)ccc2nc(N3CCOCC3)ccc12 (stereo not shown)")
1.91
>>> result_number("O=C(NCC(c1cnc(C(F)(F)F)nc1)N1CCOCC1)c1c(Cl)ccc2nc(N3CCN(CCO)CC3)ccc12 (stereo not shown)")
25.7
>>> result_number("O=C(NCC(c1cnc(C(F)(F)F)nc1)N1CCOCC1)c1c(Cl)ccc2nc(N3CC[C@H](O)C3)ccc12 (stereo partly shown)")
18.2
>>> result_number("O=C(NCC(c1cnc(C(F)(F)F)nc1)N1CCOCC1)c1c(Cl)ccc2nc(NCCNCCO)ccc12 (stereo not shown)")
7.59
>>> result_number("CC(=O)N1C[C@@H]2C[C@H]1N(c1ccc3c(C(=O)NCC(c4cnc(C(F)(F)F)nc4)N4CCOCC4)c(Cl)ccc3n1)C2 (stereo partly shown)")
107

====

Measured Target: P2X7 (Homo sapiens)
Construct: endogenous in cells; host or cells: THP-1 human monocytic cell line
Method Notes: THP-1 YoPro uptake assay (BzATP-stimulated Yo-Pro-1 uptake)
Assay type: cell-based
Conditions Used: Table F-10, THP-1 cells, read-out: mean pIC50 values for P2X7 antagonism (converted)
Labelling: IC50 reported below 20 nM becomes True; at or above becomes False.

>>> label("O=C(NCC(c1cnc(C(F)(F)F)nc1)N1CCOCC1)c1c(Cl)ccc2nc(N3CCCCC3)ccc12 (stereo not drawn)")
"True"
>>> label("NCC1CCN(c2ccc3c(C(=O)NCC(c4cnc(C(F)(F)F)nc4)N4CCC(F)(F)CC4)c(Cl)ccc3n2)CC1 (stereo not drawn)")
"True"
>>> label("O=C(NCC(c1cnc(C(F)(F)F)nc1)N1CCCCC1)c1c(Cl)ccc2nc(N3CCC(O)CC3)ccc12 (stereo not drawn)")
"True"
>>> label("CC(C)CN1CCN(c2ccc3c(C(=O)NCC(c4cnc(C(F)(F)F)nc4)N4CCC(F)(F)CC4)c(Cl)ccc3n2)CC1 (stereo not drawn)")
"True"
>>> label("O=C(NCC(c1cnc(C(F)(F)F)nc1)N1CCC(F)(F)CC1)c1c(Cl)ccc2nc(O)ccc12 (stereo not drawn)")
"False"
>>> label("O=C(NCC(c1cnc(C(F)(F)F)nc1)N1CCOCC1)c1c(Cl)ccc2nc(NCCN3CCOCC3)ccc12 (stereo not drawn)")
"False"
>>> label("O=C(NCC(c1cnc(C(F)(F)F)nc1)N1CCOCC1)c1c(Cl)ccc2nc(N3CC4COCC4C3)ccc12 (stereo not drawn)")
"False"
>>> label("CCC(C)Nc1ccc2c(C(=O)NCC(c3cnc(C(F)(F)F)nc3)N3CCOCC3)c(Cl)ccc2n1 (stereo not drawn)")
"True"
>>> label("CC(=O)N1C[C@H]2CC[C@@H]1N(c1ccc3c(C(=O)NCC(c4cnc(C(F)(F)F)nc4)N4CCOCC4)c(Cl)ccc3n1)C2 (stereo partly drawn)")
"False"
>>> label("O=C(NCC(c1cnc(C(F)(F)F)nc1)N1CCCCC1)c1c(Cl)ccc2nc(N3CCNCC3)ccc12 (stereo not drawn)")
"True"
>>> label("O=C(NCC(c1cnc(C(F)(F)F)nc1)N1CCOCC1)c1c(Cl)ccc2nc(N3C[C@@H]4CCCN[C@@H]4C3)ccc12 (stereo partly drawn)")
"True"
>>> label("CN[C@H]1CCN(c2ccc3c(C(=O)NCC(c4cnc(C(F)(F)F)nc4)N4CCOCC4)c(Cl)ccc3n2)C1 (stereo partly drawn)")
"True"
>>> label("CCC(C)Nc1ccc2c(C(=O)NCC(c3cnc(C(F)(F)F)nc3)N3CCC(F)(F)CC3)c(Cl)ccc2n1 (stereo not drawn)")
"True"
>>> label("CC1CN(c2ccc3c(C(=O)NCC(c4cnc(C(F)(F)F)nc4)N4CCOCC4)c(Cl)ccc3n2)CCO1 (stereo not drawn)")
"False"
>>> label("O=C(NCC(c1cnc(C(F)(F)F)nc1)N1CCOCC1)c1c(F)ccc2ncccc12 (stereo not drawn)")
"False"
>>> label("N[C@H]1CCN(c2ccc3c(C(=O)NCC(c4cnc(C(F)(F)F)nc4)N4CCOCC4)c(Cl)ccc3n2)C1 (stereo partly drawn)")
"True"
>>> label("O=C(NCC(c1cnc(C(F)(F)F)nc1)N1CCOCC1)c1c(Cl)ccc2nc(NCc3ccc(F)cc3)ccc12 (stereo not drawn)")
"False"
>>> label("O=C(NCC(c1cnc(C(F)(F)F)nc1)N1CCOCC1)c1c(Cl)ccc2nc(N3CC4(CNC4)C3)ccc12 (stereo not drawn)")
"False"

====

Measured Target: hP2X7 (Homo sapiens, UniProt Q99572)
Construct: expressed in transfected cells; host or cells: 1321N1 astrocytoma cells
Method Notes: P2X7 antagonism: ligand-induced Ca2+ flux in 1321N1 astrocytoma cells overexpressing hP2X7
Type: cell-based
Conditions Used: pIC50 = -log(IC50), read-out: hP2RX7pIC50 (mean pIC50 values) (converted)
Labelling: IC50 reported below 90 nM becomes yes (1); at or above becomes no (0).

>>> label("CCOc1ncc(C(CNC(=O)c2cccc3nc(N4CCCC4)ccc23)N2CCC(F)(F)CC2)cn1 (stereo not drawn) [Compound 212]")
"yes (1)"
>>> label("Cc1ncc(C(CNC(=O)c2cccc3nc(OC(C)C)ccc23)N2CCOCC2)cn1 (stereo not drawn) [Compound 117]")
"no (0)"
>>> label("O=C(NCC(c1cnc(C(F)(F)F)nc1)N1CCOCC1)c1cccc2nc(N3CCNCC3)ccc12 (stereo not drawn) [Compound 102]")
"yes (1)"
>>> label("O=C(NCC(c1ccc(C(F)(F)F)nc1)N1CCC(F)(F)CC1)c1cccc2cnccc12 (stereo not drawn) [Compound 16]")
"no (0)"
>>> label("CCOc1ncc(C(CNC(=O)c2cccc3nc(N4CCOCC4)ccc23)N2CCOCC2)cn1 (stereo not drawn) [Compound 228]")
"yes (1)"
>>> label("CC(C)N1CCN(c2ccc3c(C(=O)NCC(c4cnc(C(F)(F)F)nc4)N4CCOCC4)cccc3n2)CC1 (stereo not drawn) [Compound 181]")
"no (0)"

====

Measured Target: hP2X7 (Homo sapiens)
Construct: expressed in transfected cells; host or cells: 1321N1 astrocytoma cells
Sequence (Q99572 1-595): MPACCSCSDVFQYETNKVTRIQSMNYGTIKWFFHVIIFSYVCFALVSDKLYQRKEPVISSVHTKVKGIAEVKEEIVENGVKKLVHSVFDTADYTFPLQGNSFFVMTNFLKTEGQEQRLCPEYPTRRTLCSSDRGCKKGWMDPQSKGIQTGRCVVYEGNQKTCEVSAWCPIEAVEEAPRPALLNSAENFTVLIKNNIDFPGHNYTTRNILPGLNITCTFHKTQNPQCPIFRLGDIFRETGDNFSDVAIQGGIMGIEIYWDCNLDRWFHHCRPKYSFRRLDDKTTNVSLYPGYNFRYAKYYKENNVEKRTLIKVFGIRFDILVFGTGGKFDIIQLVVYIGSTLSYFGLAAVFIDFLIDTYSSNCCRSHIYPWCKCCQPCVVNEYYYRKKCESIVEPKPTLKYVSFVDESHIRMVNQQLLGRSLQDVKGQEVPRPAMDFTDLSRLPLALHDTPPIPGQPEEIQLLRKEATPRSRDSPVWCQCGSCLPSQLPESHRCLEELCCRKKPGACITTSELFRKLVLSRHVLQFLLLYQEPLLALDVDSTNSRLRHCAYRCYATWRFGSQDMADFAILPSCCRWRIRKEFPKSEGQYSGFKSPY
Method Notes: P2X7 antagonism: ligand-induced Ca2+ flux in 1321N1 astrocytoma cells overexpressing hP2X7
Format: cell-based
Conditions Used: pIC50 = -log(IC50), read-out: hP2RX7pIC50 (mean pIC50 values) (converted)
# Lookup of reported IC50 keyed by entry
Measurement Label: IC50

>>> result("O=C(NCC(c1cnc(C(F)(F)F)nc1)N1CCCC(F)C1)c1cccc2ncccc12 (centres unmarked)")
"30.9 nM"
>>> result("Nc1ncc(C(CNC(=O)c2cccc3nc(NCC4CC4)ccc23)N2CCC(F)(F)CC2)cn1 (centres unmarked)")
"115 nM"
>>> result("CCN1CCN(c2ccc3c(C(=O)NCC(c4cnc(C)nc4)N4CCOCC4)cccc3n2)CC1 (centres unmarked)")
"186 nM"
>>> result("O=C(NCC(c1cnc(N2CCNCC2)nc1)N1CCC(F)(F)CC1)c1cccc2nc(NCC3CC3)ccc12 (centres unmarked)")
"195 nM"
>>> result("O=C(NCC(c1ccc(C(F)(F)F)nc1)N1CCC(c2ccccc2)CC1)c1cccc2ncccc12 (centres unmarked)")
"> 10000 nM"
>>> result("O=C(NCC(c1ccc(C(F)(F)F)nc1)N1CCOCC1)c1cccc2ncccc12 (centres unmarked)")
"107 nM"
>>> result("O=C(NCC(c1cnc(C(F)(F)F)nc1)N1CCCOCC1)c1cccc2nc(NC3CC3)ccc12 (centres unmarked)")
"44.7 nM"
>>> result("CCOc1ncc(C(CNC(=O)c2cccc3nc(NCC4CC4)ccc23)N2CCOCC2)cn1 (centres unmarked)")
"50.1 nM"
